# Experimental Parameters: in n-propanol, 283.15 K

Smiles Record | solubility (mole fraction)
NC12CC3CC(C1)CC(O)(C3)C2 | 0.145

###

# Experimental Parameters: in n-propanol, 323.15 K

Smiles Record | solubility (mole fraction)
NC12CC3CC(C1)CC(O)(C3)C2 | 0.272

###

# Experimental Parameters: in n-propanol, 318.15 K
Measurement Name: solubility (mole fraction)

Smiles Record | Number
NC12CC3CC(C1)CC(O)(C3)C2 | 0.252

###

# Experimental Parameters: in n-butanol, 323.15 K

Smiles Record | solubility (mole fraction)
NC12CC3CC(C1)CC(O)(C3)C2 | 0.0904
